- TARGET OR TEST SYSTEM: GSPT1 (Homo sapiens, UniProt P15170+Q96SW2)
- Sequence (P15170 whole entry, the tested form may be a part): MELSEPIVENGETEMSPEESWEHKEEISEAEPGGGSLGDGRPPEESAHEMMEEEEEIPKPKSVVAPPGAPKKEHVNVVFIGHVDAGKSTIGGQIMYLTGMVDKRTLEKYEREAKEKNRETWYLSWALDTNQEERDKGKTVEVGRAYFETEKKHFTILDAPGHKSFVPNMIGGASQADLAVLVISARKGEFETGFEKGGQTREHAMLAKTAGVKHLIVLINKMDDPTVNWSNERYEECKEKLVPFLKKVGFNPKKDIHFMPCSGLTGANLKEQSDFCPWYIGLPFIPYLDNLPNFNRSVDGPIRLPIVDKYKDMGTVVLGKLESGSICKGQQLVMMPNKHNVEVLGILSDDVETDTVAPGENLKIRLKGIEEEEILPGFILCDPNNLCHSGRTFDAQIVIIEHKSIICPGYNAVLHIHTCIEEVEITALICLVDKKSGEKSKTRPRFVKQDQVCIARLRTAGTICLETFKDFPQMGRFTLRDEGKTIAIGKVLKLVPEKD
- Sequence (Q96SW2 whole entry, the tested form may be a part): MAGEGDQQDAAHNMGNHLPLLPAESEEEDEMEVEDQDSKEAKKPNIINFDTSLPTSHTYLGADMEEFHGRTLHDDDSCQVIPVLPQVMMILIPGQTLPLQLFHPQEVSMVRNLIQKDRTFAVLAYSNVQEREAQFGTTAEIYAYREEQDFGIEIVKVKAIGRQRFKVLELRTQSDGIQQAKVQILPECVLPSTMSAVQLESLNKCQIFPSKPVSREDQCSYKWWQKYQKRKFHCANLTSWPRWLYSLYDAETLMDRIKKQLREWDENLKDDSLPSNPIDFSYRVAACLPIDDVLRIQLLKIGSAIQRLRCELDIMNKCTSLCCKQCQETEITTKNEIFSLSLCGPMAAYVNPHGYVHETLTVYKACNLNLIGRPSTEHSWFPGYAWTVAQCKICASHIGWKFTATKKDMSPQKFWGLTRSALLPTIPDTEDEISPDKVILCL
- Sequence (Q16531 whole entry partner, the tested form may be a part): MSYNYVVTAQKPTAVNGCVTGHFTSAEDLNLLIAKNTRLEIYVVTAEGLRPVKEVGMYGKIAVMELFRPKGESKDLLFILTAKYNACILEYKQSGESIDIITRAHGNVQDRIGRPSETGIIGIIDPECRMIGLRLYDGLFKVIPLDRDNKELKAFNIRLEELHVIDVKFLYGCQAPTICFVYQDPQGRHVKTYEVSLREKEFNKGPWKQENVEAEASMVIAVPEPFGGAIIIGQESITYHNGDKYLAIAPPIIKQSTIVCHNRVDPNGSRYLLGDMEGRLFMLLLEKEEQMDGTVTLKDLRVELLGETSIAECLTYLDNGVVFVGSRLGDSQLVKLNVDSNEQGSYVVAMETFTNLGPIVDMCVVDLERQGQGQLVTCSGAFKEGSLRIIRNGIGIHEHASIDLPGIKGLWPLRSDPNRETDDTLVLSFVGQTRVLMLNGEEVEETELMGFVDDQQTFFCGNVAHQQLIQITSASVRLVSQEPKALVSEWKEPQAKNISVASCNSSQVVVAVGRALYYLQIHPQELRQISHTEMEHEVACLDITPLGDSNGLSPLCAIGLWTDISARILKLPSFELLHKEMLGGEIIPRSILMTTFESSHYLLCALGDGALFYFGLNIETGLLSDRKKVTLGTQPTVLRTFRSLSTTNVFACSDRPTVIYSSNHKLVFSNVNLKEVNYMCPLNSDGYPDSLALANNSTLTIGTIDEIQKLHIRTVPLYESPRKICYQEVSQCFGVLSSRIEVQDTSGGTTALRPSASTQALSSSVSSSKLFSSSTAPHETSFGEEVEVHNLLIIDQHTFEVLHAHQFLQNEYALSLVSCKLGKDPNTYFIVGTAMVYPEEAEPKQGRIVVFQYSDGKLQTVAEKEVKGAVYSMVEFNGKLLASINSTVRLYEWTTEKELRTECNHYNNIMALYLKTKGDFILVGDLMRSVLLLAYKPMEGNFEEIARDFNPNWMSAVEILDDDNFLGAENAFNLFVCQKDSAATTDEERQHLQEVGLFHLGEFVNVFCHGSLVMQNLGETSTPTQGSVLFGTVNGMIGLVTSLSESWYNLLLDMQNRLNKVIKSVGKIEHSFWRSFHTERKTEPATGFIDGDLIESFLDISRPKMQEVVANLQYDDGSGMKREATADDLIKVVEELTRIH
- MEASUREMENT SETUP: read-out: GSPT1 EC50; GSPT1 degradation, prolabel-tagged fusion protein in 293GT cells; highest concentration 50 µM
Recorded DC50, one value per entry.

>  <COMPOUND>
CN[C@@H]1CCCC[C@H]1N(C)c1ccc2c(c1)CN(C1CCC(=O)NC1=O)C2=O (some centres unmarked) [Compound I-2]

>  <TARGET OR TEST SYSTEM>
GSPT1 (Homo sapiens, UniProt P15170+Q96SW2)

>  <MEASURE>
DC50

>  <RESULT>
> 30 µM

$$$$
>  <COMPOUND>
O=C1CCC(N2Cc3cc(N[C@H]4CCCC[C@@H]4O)ccc3C2=O)C(=O)N1 (some centres unmarked)

>  <TARGET OR TEST SYSTEM>
GSPT1 (Homo sapiens, UniProt P15170+Q96SW2)

>  <MEASURE>
DC50

>  <RESULT>
> 30 µM

$$$$
>  <COMPOUND>
CN[C@@H]1CCCC[C@H]1N(C)c1ccc2c(c1)CN(C1CCC(=O)NC1=O)C2=O (relative stereo) [Compound I-9]

>  <TARGET OR TEST SYSTEM>
GSPT1 (Homo sapiens, UniProt P15170+Q96SW2)

>  <MEASURE>
DC50

>  <RESULT>
> 50 µM

$$$$
>  <COMPOUND>
CC(C)N[C@H]1CCCC[C@@H]1Nc1ccc2c(c1)CN(C1CCC(=O)NC1=O)C2=O (some centres unmarked)

>  <TARGET OR TEST SYSTEM>
GSPT1 (Homo sapiens, UniProt P15170+Q96SW2)

>  <MEASURE>
DC50

>  <RESULT>
> 50 µM

$$$$
>  <COMPOUND>
CN(C)[C@H]1CCCC[C@@H]1N(C)c1ccc2c(c1)C(=O)N(C1CCC(=O)NC1=O)C2=O (some centres unmarked)

>  <TARGET OR TEST SYSTEM>
GSPT1 (Homo sapiens, UniProt P15170+Q96SW2)

>  <MEASURE>
DC50

>  <RESULT>
> 50 µM

$$$$

// query DC50 value for entry CN[C@H]1CCCC[C@@H]1N(C)c1ccc2c(c1)C(=O)N(C1CCC(=O)NC1=O)C2=O (some centres unmarked) > 50 µM

Record: CN(c1ccc2c(c1)C(=O)N(C1CCC(=O)NC1=O)C2=O)[C@H]1CCCC[C@@H]1N (some centres unmarked) > 50 µM

Record: O=C1CCC(N2Cc3cc(N[C@H]4CCCC[C@@H]4NCc4ccccc4)ccc3C2=O)C(=O)N1 (some centres unmarked) > 30 µM

Record: CN[C@H]1CCCC[C@@H]1N(C)c1ccc2c(c1)CN(C1CCC(=O)NC1=O)C2=O (some centres unmarked) > 50 µM

Record: CN[C@H]1CCCCC[C@@H]1N(C)c1ccc2c(c1)C(=O)N(C1CCC(=O)NC1=O)C2=O (some centres unmarked) > 50 µM

Record: CCN[C@H]1CCCC[C@@H]1N(C)c1ccc2c(c1)C(=O)N(C1CCC(=O)NC1=O)C2=O (some centres unmarked) > 50 µM

Record: O=C1CCC(N2Cc3cc(N[C@H]4CCCC[C@@H]4OCc4ccccc4)ccc3C2=O)C(=O)N1 (some centres unmarked) > 30 µM

Record: CN(C)[C@H]1CCCC[C@@H]1Nc1ccc2c(c1)C(=O)N(C1CCC(=O)NC1=O)C2=O (some centres unmarked) > 50 µM

Record: CN[C@H]1CCCC[C@@H]1Nc1ccc2c(c1)CN(C1CCC(=O)NC1=O)C2=O (some centres unmarked) > 50 µM

----------
Recorded inhibition at 10 µM, one value per entry.
- TARGET OR TEST SYSTEM: IKZF2 (Homo sapiens, UniProt Q96SW2+Q9UKS7)
- Sequence (Q9UKS7 whole entry): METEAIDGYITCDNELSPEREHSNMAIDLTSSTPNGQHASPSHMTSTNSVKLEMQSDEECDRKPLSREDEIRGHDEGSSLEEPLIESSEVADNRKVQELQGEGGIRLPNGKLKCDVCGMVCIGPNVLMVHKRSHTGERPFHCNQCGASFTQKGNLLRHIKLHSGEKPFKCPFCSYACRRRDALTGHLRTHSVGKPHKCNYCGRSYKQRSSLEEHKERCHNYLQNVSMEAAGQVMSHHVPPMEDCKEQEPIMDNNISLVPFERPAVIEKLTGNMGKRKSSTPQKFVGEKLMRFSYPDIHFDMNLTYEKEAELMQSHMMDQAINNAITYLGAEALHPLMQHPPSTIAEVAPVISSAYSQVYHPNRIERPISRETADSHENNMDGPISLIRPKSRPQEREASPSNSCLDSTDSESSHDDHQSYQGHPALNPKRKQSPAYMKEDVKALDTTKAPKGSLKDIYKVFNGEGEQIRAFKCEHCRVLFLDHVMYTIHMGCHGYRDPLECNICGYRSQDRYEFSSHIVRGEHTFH
- Sequence (Q96SW2 whole entry): as the sequence (Q96SW2 whole entry, the tested form may be a part) above
- Sequence (Q16531 whole entry partner): as the sequence (Q16531 whole entry partner, the tested form may be a part) above
- PROTOCOL NOTES: Prolabel quantification of IKZF2 protein levels in 293GT cells
- MEASUREMENT SETUP: 24 h, read-out: IKZF2 % protein reduction at 10 µM, 24 h
For clarity, give the value followed by its unit.

Solved cases below.
>  <COMPOUND>
CN(c1ccc2c(c1)C(=O)N(C1CCC(=O)NC1=O)C2=O)[C@H]1CCCC[C@@H]1NCC(=O)O (stereo partly drawn)

>  <inhibition at 10 µM>
40%

$$$$
>  <COMPOUND>
CN(c1ccc2c(c1)C(=O)N(C1CCC(=O)NC1=O)C2=O)[C@H]1CCCC[C@@H]1NCC1(C(F)(F)F)CC1 (stereo partly drawn)

>  <inhibition at 10 µM>
30%

$$$$
>  <COMPOUND>
CN(Cc1ccccc1)[C@H]1CCCC[C@@H]1N(C)c1ccc2c(c1)CN(C1CCC(=O)NC1=O)C2=O (stereo partly drawn)

>  <inhibition at 10 µM>
65%

$$$$
>  <COMPOUND>
CN[C@H]1CCCC[C@@H]1Nc1ccc2c(c1)CN(C1CCC(=O)NC1=O)C2=O (stereo partly drawn)

>  <inhibition at 10 µM>
50%

$$$$
>  <COMPOUND>
O=C1CCC(N2Cc3cc(N[C@H]4CCCC[C@@H]4O)ccc3C2=O)C(=O)N1 (stereo partly drawn)

>  <inhibition at 10 µM>
20%

$$$$
>  <COMPOUND>
CC(C)N[C@H]1CCCC[C@@H]1Nc1ccc2c(c1)CN(C1CCC(=O)NC1=O)C2=O (stereo partly drawn)

>  <inhibition at 10 µM>
70%

$$$$
>  <COMPOUND>
CN[C@H]1CCC[C@@H]1N(C)c1ccc2c(c1)C(=O)N(C1CCC(=O)NC1=O)C2=O (stereo partly drawn)

>  <inhibition at 10 µM>
30%

$$$$
>  <COMPOUND>
CN[C@H]1CCCCC[C@@H]1N(C)c1ccc2c(c1)C(=O)N(C1CCC(=O)NC1=O)C2=O (stereo partly drawn)

>  <inhibition at 10 µM>
70%

$$$$
>  <COMPOUND>
N[C@H]1CCCC[C@@H]1Nc1ccc2c(c1)CN(C1CCC(=O)NC1=O)C2=O (stereo partly drawn)

>  <inhibition at 10 µM>
30%

$$$$
>  <COMPOUND>
CCN[C@H]1CCCC[C@@H]1Nc1ccc2c(c1)CN(C1CCC(=O)NC1=O)C2=O (stereo partly drawn)

>  <inhibition at 10 µM>
45%

$$$$

For the next question, use this compound.
// query inhibition at 10 µM value for entry O=C1CCC(N2Cc3cc(N[C@H]4CCC[C@@H]4N4CCCCC4)ccc3C2=O)C(=O)N1 (stereo partly drawn) 40%

----------
- TARGET OR TEST SYSTEM: IKZF2 (Homo sapiens, UniProt Q96SW2+Q9UKS7)
- PROTOCOL NOTES: Prolabel quantification of IKZF2 protein levels in 293GT cells
- MEASUREMENT SETUP: read-out: IKZF2 EC50; Helios (IKZF2) degradation, prolabel-tagged fusion protein in 293GT cells; highest concentration 50 µM
MEASURE: DC50 (nM)
Just the number please, in nM, no unit attached.

Solved cases below.
>  <MOLECULE>
CN(Cc1ccccc1)[C@H]1CCCC[C@@H]1N(C)c1ccc2c(c1)CN(C1CCC(=O)NC1=O)C2=O (stereo partly shown) [Compound I-6]

>  <DC50 / nM>
43

$$$$
>  <MOLECULE>
CN(c1ccc2c(c1)C(=O)N(C1CCC(=O)NC1=O)C2=O)[C@H]1CCCC[C@@H]1NCc1cccnc1 (stereo partly shown) [Compound I-143]

>  <DC50 / nM>
23100

$$$$
>  <MOLECULE>
O=C1CCC(N2Cc3cc(N[C@H]4CCCC[C@@H]4NCc4ccccc4)ccc3C2=O)C(=O)N1 (stereo partly shown) [Compound I-3]

>  <DC50 / nM>
29

$$$$

For the next question, use this molecule.
// query DC50 value for entry O=C1CCC(N2Cc3cc(N[C@H]4CCCC[C@@H]4NCC4CCCCC4)ccc3C2=O)C(=O)N1 (stereo partly shown) [Compound I-12] 36

----------
Recorded inhibition at 10 µM, one value per entry.
- TARGET OR TEST SYSTEM: IKZF2 (Homo sapiens, UniProt Q96SW2+Q9UKS7)
- PROTOCOL NOTES: Prolabel quantification of IKZF2 protein levels in 293GT cells
- MEASUREMENT SETUP: 24 h, read-out: IKZF2 % protein reduction at 10 µM, 24 h
Just the number please, in %, no unit attached.

Solved cases below.
>  <COMPOUND>
CN[C@H]1CCCC[C@@H]1N(C)c1ccc2c(c1F)CN(C1CCC(=O)NC1=O)C2=O (stereo partly shown)

>  <MEASURE>
inhibition at 10 µM

>  <MEASURE UNIT>
%

>  <NUMERIC VALUE>
80

$$$$
>  <COMPOUND>
CN(c1ccc2c(c1)C(=O)N(C1CCC(=O)NC1=O)C2=O)[C@H]1CCCC[C@@H]1NCc1ccccc1 (stereo partly shown)

>  <MEASURE>
inhibition at 10 µM

>  <MEASURE UNIT>
%

>  <NUMERIC VALUE>
75

$$$$
>  <COMPOUND>
O=C1CCC(N2Cc3cc(N[C@H]4CCCC[C@@H]4NCC4CCCCC4)ccc3C2=O)C(=O)N1 (stereo partly shown)

>  <MEASURE>
inhibition at 10 µM

>  <MEASURE UNIT>
%

>  <NUMERIC VALUE>
65

$$$$

For the next question, use this compound.
// query inhibition at 10 µM value for entry CCN[C@H]1CCCC[C@@H]1N(CC)c1ccc2c(c1)CN(C1CCC(=O)NC1=O)C2=O (stereo partly shown) 10
